system: HepG2; assay: Inhibition of cell proliferation of human HepG2 cells at 30 ug/mL after 48 hrs by Sulforhodamine B assay; type: functional; conditions: HepG2, 48 h
Entry flag: y if inhibition at 30 µg/mL reaches 10%; n if it does not.

>>> classification("CC(=O)N1C[C@@H]2CCCN3CCC[C@@H]([C@H]23)[C@@H]1CCCC(=O)O")
"y"
>>> classification("O=C(O)CCC[C@H]1[C@H]2CCCN3CCC[C@@H](CN1S(=O)(=O)c1ccccc1)[C@@H]23")
"n"
>>> classification("O=C1CCC[C@@H]2[C@H]3CCCN4CCC[C@H](CN12)[C@@H]34 [SOPHORIDINE]")
"y"
>>> classification("O=C(O)CCC[C@H]1[C@H]2CCCN3CCC[C@@H](CN1C(=O)c1ccccc1)[C@@H]23")
"n"
>>> classification("COC(=O)N1C[C@@H]2CCCN3CCC[C@@H]([C@H]23)[C@@H]1CCCC(=O)O")
"n"
>>> classification("Cc1ccc(CN2C[C@@H]3CCCN4CCC[C@@H]([C@H]34)[C@@H]2CCCC(=O)O)cc1")
"n"
>>> classification("COc1cc(C(=O)N2C[C@@H]3CCCN4CCC[C@@H]([C@H]34)[C@@H]2CCCC(=O)O)cc(OC)c1OC")
"y"
>>> classification("COc1ccc(CN2C[C@@H]3CCCN4CCC[C@@H]([C@H]34)[C@@H]2CCCC(=O)O)cc1")
"n"
>>> classification("O=C(O)CCC[C@H]1[C@H]2CCCN3CCC[C@@H](CN1C(=O)c1cccc([N+](=O)[O-])c1)[C@@H]23")
"n"
>>> classification("CC(C)(C)C(=O)N1C[C@@H]2CCCN3CCC[C@@H]([C@H]23)[C@@H]1CCCC(=O)O")
"y"
>>> classification("O=C(O)CCC[C@H]1[C@H]2CCCN3CCC[C@@H](CN1C(=O)CBr)[C@@H]23")
"y"
>>> classification("Cc1ccc(C(=O)N2C[C@@H]3CCCN4CCC[C@@H]([C@H]34)[C@@H]2CCCC(=O)O)cc1")
"n"
>>> classification("Cc1c(C(=O)N2C[C@@H]3CCCN4CCC[C@@H]([C@H]34)[C@@H]2CCCC(=O)O)cccc1[N+](=O)[O-]")
"n"
